These measurements were taken from ChEMBL document CHEMBL3045653.

# Test target: Acetolactate synthase (Raphanus raphanistrum, UniProt J7HAW4)
# Sequence (J7HAW4 whole entry): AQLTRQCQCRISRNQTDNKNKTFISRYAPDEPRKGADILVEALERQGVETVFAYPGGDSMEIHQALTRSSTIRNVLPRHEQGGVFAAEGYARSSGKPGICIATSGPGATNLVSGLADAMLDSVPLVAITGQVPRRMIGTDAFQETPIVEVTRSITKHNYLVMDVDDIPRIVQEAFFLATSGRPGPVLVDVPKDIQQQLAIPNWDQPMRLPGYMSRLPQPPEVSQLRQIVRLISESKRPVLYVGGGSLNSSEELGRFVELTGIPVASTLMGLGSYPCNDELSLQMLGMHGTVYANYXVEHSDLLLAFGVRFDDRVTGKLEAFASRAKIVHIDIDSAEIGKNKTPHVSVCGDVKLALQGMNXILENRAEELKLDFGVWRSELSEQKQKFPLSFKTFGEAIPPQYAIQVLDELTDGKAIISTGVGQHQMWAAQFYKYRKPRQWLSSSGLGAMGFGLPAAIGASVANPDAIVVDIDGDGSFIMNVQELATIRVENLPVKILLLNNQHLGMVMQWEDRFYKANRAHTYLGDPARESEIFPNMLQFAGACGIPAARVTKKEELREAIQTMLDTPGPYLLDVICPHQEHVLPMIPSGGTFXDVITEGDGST
# Test method notes: Inhibition of ALS in ALS-herbicide-susceptible Raphanus raphanistrum […] (wild radish)
# Test parameters: pooled result: one value given for 2 cell lines, strains, targets or settings; read-out: I50
pIC50: −log10 of the molar value.
Measured pIC50, listed per entry for reference.
Quantity: pIC50

Compound: COCc1cnc(C2=NC(C)(C(C)C)C(=O)N2)c(C(=O)O)c1 (stereo not given)
Quantity: pIC50
Bound sign: =
Test value: 5.32

Compound: CC(C)C1(C)N=C(c2ncccc2C(=O)O)NC1=O (stereo not given)
Quantity: pIC50
Bound sign: =
Test value: 5.17

Compound: CCc1cnc(C2=NC(C)(C(C)C)C(=O)N2)c(C(=O)O)c1 (stereo not given)
Quantity: pIC50
Bound sign: =
Test value: 5.87

Compound: COc1cc(OC)n2nc(S(=O)(=O)Nc3c(Cl)ccc(C)c3Cl)nc2n1
Quantity: pIC50
Bound sign: >
Test value: 9.00

Compound: Cc1ccn2nc(S(=O)(=O)Nc3c(F)cccc3F)nc2n1
Quantity: pIC50
Bound sign: =
Test value: 5.78
